# System: Fibroblast
# assay_comment: Multiplex assay against human fibroblast
# Assay type: toxicity, cell-based
# run_conditions: 12 h, 1 µM, compound concentration 1 uM, replicate 2
assay_metric: Population Normal (%)
Write the value in % as a bare number.

query: Please indicate Population Normal (%) recorded for O=C1NCN(c2ccccc2)C12CCN(CCCOc1ccc(F)cc1)CC2 [SPIRAMIDE]
result: 92

query: Please indicate Population Normal (%) recorded for C[C@@H](NCCCc1cccc(C(F)(F)F)c1)c1cccc2ccccc12.Cl [CINACALCET HYDROCHLORIDE]
result: 90

query: Please indicate Population Normal (%) recorded for OC1(c2ccc(Cl)cc2)CCN(Cc2c[nH]c3ccccc23)CC1
result: 89

query: Please indicate Population Normal (%) recorded for CNc1nc(NCc2ccc(NS(C)(=O)=O)cc2Cl)cc(-c2ccccn2)n1
result: 91

query: Please indicate Population Normal (%) recorded for CN1CCN(CCOc2cc(OC3CCOCC3)c3c(Nc4c(Cl)ccc5c4OCO5)ncnc3c2)CC1
result: 90

Further cases:
query: Please indicate Population Normal (%) recorded for CN1CCC[C@@H]1CCO[C@](C)(c1ccccc1)c1ccc(Cl)cc1.O=C(O)/C=C/C(=O)O [CLEMASTINE FUMARATE]
result: 98

query: Please indicate Population Normal (%) recorded for Cn1cc(-c2[nH]c3cc(NC(=O)[C@H](N)C4CCCCC4)cc4c3c2C=NNC4=O)cn1
result: 96

query: Please indicate Population Normal (%) recorded for Cc1nc(-c2ccc(-c3ccc(C(=O)N4CCc5cc6c(cc54)C4(CCN(C)CC4)CO6)cc3)c(C)c2)no1
result: 87

====

# Test system: Fibroblast
# assay_comment: Multiplex assay against human fibroblast
# Type: toxicity, cell-based
# run_conditions: 12 h, 10 µM, compound concentration 10 uM, replicate 2
assay_metric: Population Normal (%)
Write the value in % as a bare number.

Example cases with answers are listed next.
query: Please indicate Population Normal (%) recorded for Cn1cc(-c2[nH]c3cc(NC(=O)[C@H](N)C4CCCCC4)cc4c3c2C=NNC4=O)cn1
result: 90

query: Please indicate Population Normal (%) recorded for Cc1csc2c(N[C@@H](C)CN3CCN(S(=O)(=O)c4ccc(Cl)c(Cl)c4)CC3)ncnc12
result: 95

query: Please indicate Population Normal (%) recorded for C[C@@H](NCCCc1cccc(C(F)(F)F)c1)c1cccc2ccccc12.Cl [CINACALCET HYDROCHLORIDE]
result: 92

query: Please indicate Population Normal (%) recorded for Cl.N#Cc1ccc2[nH]cc(CCCCN3CCN(c4ccc5oc(C(N)=O)cc5c4)CC3)c2c1 [VILAZODONE HYDROCHLORIDE]
result: 89

Further cases:
query: Please indicate Population Normal (%) recorded for Cc1nc(-c2ccc(-c3ccc(C(=O)N4CCc5cc6c(cc54)C4(CCN(C)CC4)CO6)cc3)c(C)c2)no1
result: 88

query: Please indicate Population Normal (%) recorded for Cn1cncc1[C@@](O)(COc1ccc(C#N)cc1-c1ccc(OC(F)(F)F)cc1)c1ccc(C#N)cc1
result: 67

query: Please indicate Population Normal (%) recorded for CN(C)C(=O)N[C@H]1CC[C@H](CCN2CCN(c3cccc(Cl)c3Cl)CC2)CC1.Cl [CARIPRAZINE HYDROCHLORIDE]
result: 96

====

Here, each record is paired with measured Growth Rate data.
# Test system: Fibroblast
# assay_comment: Incucyte cell viability with human fibroblast; further: filed as whole numbers so only -1 and 0 and 1 occur
# Type: toxicity, cell-based
# run_conditions: 0 h, 10 µM, compound concentration 10 uM, replicate number 2, timepoint 0 hours
# print the numeric value only

Example cases with answers are listed next.
query: Please indicate Growth Rate recorded for CCN(CC)CCCCNc1ncc2cc(-c3cc(OC)cc(OC)c3)c(NC(=O)NC(C)(C)C)nc2n1
result: 0

query: Please indicate Growth Rate recorded for COc1ccc(Oc2cc(NCCC(F)(F)F)c3ncc(-c4ccc(C(=O)NC5CC5)c(C)c4)n3n2)c(F)c1F
result: 1

query: Please indicate Growth Rate recorded for N#Cc1ccc(NC(=O)Nc2ccccc2Br)c2nn[nH]c12
result: 1

query: Please indicate Growth Rate recorded for CN1C(=O)[C@@H](N2CCc3cn(Cc4ccccc4)nc3C2=O)COc2ccccc21
result: 1

query: Please indicate Growth Rate recorded for CC(C)(O)CNc1ncc(-c2ccnc(Nc3ccnc(Cl)c3)n2)c(CC2CC2)n1
result: 1

query: Please indicate Growth Rate recorded for O=C(/C=C/N1C[C@H]2C[C@@H]1CN2c1ccccn1)c1ccccc1O
result: 0

Further cases:
query: Please indicate Growth Rate recorded for Cc1nc(Nc2n[nH]c3c2CN(C(=O)N[C@H](CN(C)C)c2ccccc2)C3(C)C)c2sccc2n1
result: 0

query: Please indicate Growth Rate recorded for C[C@@H](c1cccc(CN)c1)n1cc(Cl)cc(C(N)=O)c1=N.Cl
result: 0

query: Please indicate Growth Rate recorded for CC(C)S(=O)(=O)c1ccc2nccc(Nc3ccc4scnc4c3)c2c1
result: 0

query: Please indicate Growth Rate recorded for O=C(O)[C@@H]1[C@@H](Cn2nnc3ccccc3c2=O)CC[C@H]1C(=O)c1ccc(OCCC2CCOCC2)cc1
result: 1

====

Here, each record is paired with measured Population Normal (%) data.
# System: HEK-293T
# assay_comment: Multiplex assay against HEK293T
# Format: toxicity, cell-based
# run_conditions: human, 24 h, 1 µM, compound concentration 1 uM, replicate 2
Field note: include the unit after the figure.

query: Please indicate Population Normal (%) recorded for Cc1nc(-c2ccc(-c3ccc(C(=O)N4CCc5cc6c(cc54)C4(CCN(C)CC4)CO6)cc3)c(C)c2)no1 [SB-224289]
result: 96%

query: Please indicate Population Normal (%) recorded for CN1CCN(CCOc2cc(OC3CCOCC3)c3c(Nc4c(Cl)ccc5c4OCO5)ncnc3c2)CC1 [SARACATINIB]
result: 94%

query: Please indicate Population Normal (%) recorded for CN(C)C(=O)N[C@H]1CC[C@H](CCN2CCN(c3cccc(Cl)c3Cl)CC2)CC1.Cl [CARIPRAZINE HYDROCHLORIDE]
result: 97%

Further cases:
query: Please indicate Population Normal (%) recorded for CC(C)NCC(O)COc1ccc(CCOCC2CC2)cc1.Cl (stereo unspecified) [BETAXOLOL HYDROCHLORIDE]
result: 98%

query: Please indicate Population Normal (%) recorded for COc1ncc(-c2ccc3nccc(-c4ccnnc4)c3c2)cc1NS(=O)(=O)c1ccc(F)cc1F [OMIPALISIB]
result: 93%

query: Please indicate Population Normal (%) recorded for CN1CCN(c2ccc(OC(F)(F)F)c(Nc3ncc4c(n3)-c3c(c(C(N)=O)nn3CCO)CC4)c2)CC1 [ONVANSERTIB]
result: 90%

====

# System: HEK-293T
# assay_comment: Multiplex assay against HEK293T
# Type: toxicity, cell-based
# run_conditions: human, 12 h, 10 µM, compound concentration 10 uM, replicate 1
Lab note: anything with Population Normal (%) below 80% is marked TRUE; values at 80% or higher are marked FALSE.

Examples with answers:
query: Does the reported Population Normal (%) of the following compound sit strictly below 80%? COc1cc2nccc(Oc3ccc(NC(=O)Nc4cc(C)on4)c(Cl)c3)c2cc1OC.O
result: FALSE

query: Does the reported Population Normal (%) of the following compound sit strictly below 80%? COc1cccc([C@@H](C)NCCCc2ccccc2Cl)c1.Cl [TECALCET HYDROCHLORIDE]
result: FALSE

query: Does the reported Population Normal (%) of the following compound sit strictly below 80%? COc1cc(-n2cnc3cc(-c4ccc(Cl)cc4)sc3c2=O)ccc1OCCN1CCCC1
result: TRUE

query: Does the reported Population Normal (%) of the following compound sit strictly below 80%? CN(C)CC#Cc1ccc(OCCCc2sc(N3CCc4cccc(C(=O)Nc5nc6ccccc6s5)c4C3)nc2C(=O)O)c(F)c1 [A-1155463]
result: FALSE

query: Does the reported Population Normal (%) of the following compound sit strictly below 80%? CCN(CC)CCCCNc1ncc2cc(-c3cc(OC)cc(OC)c3)c(NC(=O)NC(C)(C)C)nc2n1 [PD-173074]
result: TRUE

Further cases:
query: Does the reported Population Normal (%) of the following compound sit strictly below 80%? C=CC(=O)Nc1ccc2ncnc(Nc3ccc(OCc4cccc(F)c4)c(Cl)c3)c2c1.Cc1ccc(S(=O)(=O)O)cc1
result: FALSE

query: Does the reported Population Normal (%) of the following compound sit strictly below 80%? Cc1cc(C)cc(-c2cnc3cc(Cl)c(-c4cccc(O)c4)cc3c2OCCCN)c1
result: FALSE

query: Does the reported Population Normal (%) of the following compound sit strictly below 80%? Cc1csc2c(N[C@@H](C)CN3CCN(S(=O)(=O)c4ccc(Cl)c(Cl)c4)CC3)ncnc12
result: FALSE

query: Does the reported Population Normal (%) of the following compound sit strictly below 80%? Cc1[nH]c(/C=C2\C(=O)Nc3ccc(S(=O)(=O)N(C)c4cccc(Cl)c4)cc32)c(C)c1C(=O)N1CCN(C)CC1
result: FALSE

query: Does the reported Population Normal (%) of the following compound sit strictly below 80%? Cc1nc(-c2cn3c(n2)-c2ccc(-c4cnn(C(C)(C)C(N)=O)c4)cc2OCC3)n(C(C)C)n1 [TASELISIB]
result: FALSE
